# METHOD_NOTES: physchem
# SETTINGS: pH 7.4
logD at 90 min of 0.9 or higher: label 1. Under 0.9: label 0.

Cc1ncc([N+](=O)[O-])n1CCO: label 0
O=C(O)Cc1ccccc1Nc1c(Cl)cccc1Cl: label 1
CN(C)CCC=C1c2ccccc2CCc2ccccc21: label 1
NC(=O)N1c2ccccc2C=Cc2ccccc21 [Carbamazepine]: label 1

We now examine a further molecule.
Item COc1ccc2c(c1)c(CC(=O)O)c(C)n2C(=O)c1ccc(Cl)cc1 with logD at 90 min of 0.9 or above?
label 0

---

# METHOD_NOTES: physchem
# SETTINGS: pH 7.4
MEASURE_NAME: logD at 90 min
Answer with a bare number; do not write a unit.

C=CCc1ccccc1OCC(O)CNC(C)C (stereo not shown) [Alprenolol]: 1.03
O=C1NC(=O)C(c2ccccc2)(c2ccccc2)N1 [Phenytoin]: 2.32
COCCOC(=O)C1=C(C)NC(C)=C(C(=O)OC(C)C)C1c1cccc([N+](=O)[O-])c1 (stereo not shown) [Nimodipine]: 3.95

# logD at 90 min of CC(CCc1ccccc1)NCC(O)c1ccc(O)c(C(N)=O)c1 (stereo not shown) [Labetalol] = 1.08

For record COCCc1ccc(OCC(O)CNC(C)C)cc1 (stereo not shown) [Metoprolol] the listed logD at 90 min is 0.06

CC(C)Cc1ccc(C(C)C(=O)O)cc1 (stereo not shown) [Ibuprofen] has a reported logD at 90 min of 0.97

According to the records, this compound CCCSc1ccc2nc(NC(=O)OC)[nH]c2c1 [Albendazole] displays logD at 90 min of 3.41

Short answer for COC1=CC(=O)C[C@@H](C)[C@]12Oc1c(Cl)c(OC)cc(OC)c1C2=O [Griseofulvin] : logD at 90 min was 2.19

For CN(C)CCCN1c2ccccc2Sc2ccc(Cl)cc21 [Chlorpromazine] the compound record lists logD at 90 min as 3.26

For this compound ( CCC1(c2ccccc2)C(=O)NCNC1=O [Primidone] ), measured logD at 90 min is 0.74
